assay: Oral bioavailability in CD IGS rat at 10 mg/kg measured after 26 hrs; assay type: ADME, organism-based; details: in vivo
experimental readout: bioavailability (%)

1. COc1cncc(-c2nc(NC(C)(C)CO)nc3sc(C(N)=O)c(N)c23)c1
2. NC(=O)c1sc2ncnc(-c3cccc(NC(=O)Nc4ccc(C(F)(F)F)cc4)c3)c2c1N
Ask: For the pair 1 and 2 , which entry has the numerically smaller recorded bioavailability? Returns: label corresponding to the selected item.
Reply: 2
